# protocol: in vivo
# assaySetup: BALB/c nude, mouse, in vivo, iv, total radioactivity, T/K Tumor/Kidney ratio
Can you tell me tissue to tissue ratio at 24 h for the items I'm about to list?
Numbers only.

C[C@@H](O)[C@H](NC(=O)[C@@H]1CSSC[C@H](NC(=O)[C@@H](Cc2ccccc2)NC(=O)[C@H](CCCCNC(=O)c2cccc(NC(=O)N[C@@H]3CN(C4CCCCC4)c4ccccc4N(CC(=O)C(C)(C)C)C3=O)c2)NC(=O)COCCOCCNC(=O)CN2CCN(CC(=O)O)CCN(CC(=O)O)CCN(CC(=O)O)CC2)C(=O)N[C@@H](Cc2ccc(O)cc2)C(=O)N[C@H](Cc2c[nH]c3ccccc23)C(=O)N[C@@H](CCCCN)C(=O)N[C@@H]([C@@H](C)O)C(=O)N1)C(=O)O [Compound I-35, DOTA-OEG-K(Z360)-f[CYwKTC]T-OH]	2.9

# context switch: different compound, same tissue to tissue ratio at 24 h
Incoming: Fill in the blank: the reported tissue to tissue ratio at 24 h of C[C@@H](O)[C@H](NC(=O)[C@@H]1CSSC[C@H](NC(=O)[C@@H](Cc2ccccc2)NC(=O)CCCCCCCNC(=O)[C@H](CCCCNC(=O)c2cccc(NC(=O)N[C@@H]3CN(C4CCCCC4)c4ccccc4N(CC(=O)C(C)(C)C)C3=O)c2)NC(=O)CN2CCN(CC(=O)O)CCN(CC(=O)O)CCN(CC(=O)O)CC2)C(=O)N[C@@H](Cc2ccc(O)cc2)C(=O)N[C@H](Cc2c[nH]c3ccccc23)C(=O)N[C@@H](CCCCN)C(=O)N[C@@H]([C@@H](C)O)C(=O)N1)C(=O)O [Compound I-61, DOTA-K(Z360)-Aoc-f[CYwKTC]T-OH] is ____.
Outgoing: 3.5

---

# protocol: in vivo
# assaySetup: BALB/c nude, mouse, in vivo, iv, total radioactivity, uptake Liver
Can you tell me tissue uptake at 24 h for the items I'm about to list?
One number for each entry, in %ID/g.

Hey, can you go through the list below and give me tissue uptake at 24 h for every item?
1. C[C@@H](O)[C@H](NC(=O)[C@@H]1CSSC[C@H](NC(=O)[C@@H](Cc2ccccc2)NC(=O)CCOCCOCCOCCNC(=O)[C@H](CCCCNC(=O)c2cccc(NC(=O)N[C@@H]3CN(C4CCCCC4)c4ccccc4N(CC(=O)C(C)(C)C)C3=O)c2)NC(=O)CN2CCN(CC(=O)O)CCN(CC(=O)O)CCN(CC(=O)O)CC2)C(=O)N[C@@H](Cc2ccc(O)cc2)C(=O)N[C@H](Cc2c[nH]c3ccccc23)C(=O)N[C@@H](CCCCN)C(=O)N[C@@H]([C@@H](C)O)C(=O)N1)C(=O)O [Compound I-38, DOTA-K(Z360)-PEG3-f[CYwKTC]T-OH]
2. C[C@@H](O)[C@H](NC(=O)[C@@H]1CSSC[C@H](NC(=O)[C@@H](Cc2ccccc2)NC(=O)COCCOCCNC(=O)[C@H](CCCCNC(=O)[C@H](CCC(=O)O)NC(=O)c2cccc(NC(=O)N[C@@H]3CN(C4CCCCC4)c4ccccc4N(CC(=O)C(C)(C)C)C3=O)c2)NC(=O)CN2CCN(CC(=O)O)CCN(CC(=O)O)CCN(CC(=O)O)CC2)C(=O)N[C@@H](Cc2ccc(O)cc2)C(=O)N[C@H](Cc2c[nH]c3ccccc23)C(=O)N[C@@H](CCCCN)C(=O)N[C@@H]([C@@H](C)O)C(=O)N1)C(N)=O [Compound I-3, DOTA-K(-E-Z360)-OEG-f[CYwKTC]T-NH2]

Outgoing:
2.3
1.16
